Give IC50 for every item shown.
Test system: HT-29 colon adenocarcinoma cells
Test: cells
Assay type: cell-based, human
Settings: 24 h
Protocol: The twelve synthesized compounds were evaluated in vitro using the following four human cancer cell lines: cervical adenocarcinoma (HeLa), lung carcinoma (A-549), breast adenocarcinoma (SK-BR-3) and colon adenocarcinoma (HT-29). Cells were treated for 24 h with various concentrations of the compounds, and their cytotoxic activity was then assessed using the [3-(4,5-dimethylthiazol-2-yl)-2,5-diphenyltetrazolium] bromide (MTT) assay.[29] […]
*1 amine or outer side, *2 acyl side, *3 side chain or, on linkers, in order; H or OH if unused. Where a SMILES comes first, the peptide text is derived from it. [ ]: non-standard residue; d: D form. The star is where a group is joined. Quinoxaline2carbonyl = O=C(c1cnc2ccccc2n1)*; Ethylenediamine = C(CN[*:2])N[*:1]; NMeV = CN[C@H](C(=O)O)C(C)C; NMeAbu = CC[C@H](NC)C(=O)O
State the answer as a number, implicitly in µM.

Entry under test: CC[C@@H](C(=O)NCCNC(=O)c1cnc2ccccc2n1)N(C)C(=O)[C@H](C(C)C)N(C)C(=O)[C@@H](NC(=O)CNC(=O)[C@H]1CCCN1C(=O)[C@@H](NC(=O)[C@H](C(C)C)N(C)C(=O)[C@H](CC)N(C)C(=O)[C@@H](CO)NC(=O)c1cnc2ccccc2n1)C(C)C)C(C)C [RZ3] (Quinoxaline2carbonyl-[dS][NMeAbu][NMeV]V[dP]GV[NMeV][NMeAbu]-{Ethylenediamine-Quinoxaline2carbonyl}) . Its IC50 was 72.3

# IC50 of CC[C@@H](C(=O)N(C)[C@H](C(=O)N[C@H](C(=O)N1CCC[C@@H]1C(=O)NCC(=O)N[C@H](C(=O)N(C)[C@H](C(=O)N(C)[C@@H](CC)C(=O)NCCNC(=O)c1cnc2ccccc2n1)C(C)C)C(C)C)C(C)C)C(C)C)N(C)C(=O)[C@H](CO)NC(=O)c1cnc2ccccc2n1 [RZ1] (Quinoxaline2carbonyl-S[NMeAbu][NMeV]V[dP]GV[NMeV][NMeAbu]-{Ethylenediamine-Quinoxaline2carbonyl}) = 88.4

Reported IC50 for CC[C@@H](C(=O)N(C)[C@H](C(=O)N[C@H](C(=O)N1CCC[C@@H]1C(=O)NCC(=O)N[C@H](C(=O)N(C)[C@H](C(=O)N(C)[C@@H](CC)C(=O)NCCNC(=O)c1cnc2ccccc2n1)C(C)C)[C@@H](C)O)[C@@H](C)O)C(C)C)N(C)C(=O)[C@H](CO)NC(=O)c1cnc2ccccc2n1 [RZ5] (Quinoxaline2carbonyl-S[NMeAbu][NMeV]T[dP]GT[NMeV][NMeAbu]-{Ethylenediamine-Quinoxaline2carbonyl}) was 84.8

All values here come from paper PMC5666514.
